Tested on: Aspergillus clavatus
Assay: Antifungal activity against Aspergillus clavatus MTCC 1323 after 72 hr
Format: functional
Details: MTCC 1323, 72 h
OBSERVATION TYPE: MIC99 (µg/mL)

Example entries begin here.
SMILES RECORD | MEASUREMENT TARGET | UNIT TAG | MIC99
O=C(Nn1c(S)nnc1-c1cccc2ccccc12)c1ccc(O)cc1 | Aspergillus clavatus | µg/mL | 500
O=C(Nn1c(S)nnc1-c1cccc2ccccc12)c1cccc([N+](=O)[O-])c1 | Aspergillus clavatus | µg/mL | 100
COc1ccccc1C(=O)Nn1c(S)nnc1-c1cccc2ccccc12 | Aspergillus clavatus | µg/mL | 500
O=C(Nn1c(S)nnc1-c1cccc2ccccc12)c1ccc([N+](=O)[O-])cc1 | Aspergillus clavatus | µg/mL | 50

[A] O=C(Nn1c(S)nnc1-c1cccc2ccccc12)c1ccccc1Cl
[B] O=C(Cc1ccccc1)Nn1c(S)nnc1-c1cccc2ccccc12
[C] O=C(Nn1c(S)nnc1-c1cccc2ccccc12)c1cccc(Cl)c1
[D] Cc1ccccc1C(=O)Nn1c(S)nnc1-c1cccc2ccccc12
Enquiry: Let's sort these by MIC99, smallest first. Go ahead? Answer by listing the labels in the requested order.
Return: C, D, A, B
(C: 50 µg/mL, D: 100 µg/mL, A: 250 µg/mL, B: 500 µg/mL)

---

Tested on: Aspergillus clavatus
Experiment: Antifungal activity against Aspergillus clavatus MTCC 1323 after 72 hr
Format: functional
Conditions: MTCC 1323, 72 h
OBSERVATION TYPE: MIC99 (µg/mL)

COMPOUND | OBSERVATION TYPE | MEASURED VALUE
O=C(COc1ccc2ccccc2c1)Nn1c(S)nnc1-c1cccc2ccccc12 | MIC99 | 500

[I] COC1=CC(=O)C[C@@H](C)[C@]12Oc1c(Cl)c(OC)cc(OC)c1C2=O [GRISEOFULVIN]
[II] O=C(Nn1c(S)nnc1-c1cccc2ccccc12)c1ccc2cccc([N+](=O)[O-])c2c1
[III] O=C(Nn1c(S)nnc1-c1cccc2ccccc12)c1ccccc1O
[IV] O=C(Nn1c(S)nnc1-c1cccc2ccccc12)c1ccccc1
Enquiry: Put the entries in order of MIC99, starting with the largest number. Answer by listing the labels in the requested order.
Return: IV, III, I, II

---

System: Staphylococcus aureus
Experiment: Antibacterial activity against Staphylococcus aureus MTCC 96 after 24 to 48 hr by serial broth dilution method
Type: functional
OBSERVATION TYPE: MIC99 (µg/mL)

SMILES RECORD | UNIT TAG | MIC99
O=C(COc1ccc2ccccc2c1)Nn1c(S)nnc1-c1cccc2ccccc12 | µg/mL | 250

[a] O=C(Cc1ccccc1)Nn1c(S)nnc1-c1cccc2ccccc12
[b] Cc1ccccc1C(=O)Nn1c(S)nnc1-c1cccc2ccccc12
Enquiry: I'd appreciate it if you could identify which of a and b has the greater MIC99. Could you answer with the label of the item you picked?
Return: b
(b: 500 µg/mL, a: 250 µg/mL)

---

System: Aspergillus niger
Assay: Antifungal activity against Aspergillus niger MTCC 282 after 72 hr
Assay type: functional
Conditions: MTCC 282, 72 h
OBSERVATION TYPE: MIC99 (µg/mL)

Example entries begin here.
SMILES RECORD | MEASURED VALUE
O=C(Cc1ccccc1)Nn1c(S)nnc1-c1cccc2ccccc12 | 500
O=C(Nn1c(S)nnc1-c1cccc2ccccc12)c1ccccc1Cl | 100
COc1ccccc1C(=O)Nn1c(S)nnc1-c1cccc2ccccc12 | 200

[P] O=C(Nn1c(S)nnc1-c1cccc2ccccc12)c1cccc([N+](=O)[O-])c1
[Q] O=C(Nn1c(S)nnc1-c1cccc2ccccc12)c1cccc(Cl)c1
[R] COC1=CC(=O)C[C@@H](C)[C@]12Oc1c(Cl)c(OC)cc(OC)c1C2=O
[S] Cc1ccccc1C(=O)Nn1c(S)nnc1-c1cccc2ccccc12
[T] O=C(Nn1c(S)nnc1-c1cccc2ccccc12)c1ccccc1
Enquiry: Let's sort these by MIC99, smallest first. Go ahead? Answer by listing the labels in the requested order.
Return: Q, R, P, S, T

---

System: Staphylococcus aureus
Assay: Antibacterial activity against Staphylococcus aureus MTCC 96 after 24 to 48 hr by serial broth dilution method
Format: functional
OBSERVATION TYPE: MIC99 (µg/mL)

Example entries begin here.
COMPOUND | MEASURED VALUE
COc1ccccc1C(=O)Nn1c(S)nnc1-c1cccc2ccccc12 | 250
O=C(Nn1c(S)nnc1-c1cccc2ccccc12)c1ccccc1O | 500

[I] CC1(C)S[C@@H]2[C@H](NC(=O)[C@H](N)c3ccccc3)C(=O)N2[C@H]1C(=O)O [AMPICILLIN]
[II] O=C(Nn1c(S)nnc1-c1cccc2ccccc12)c1ccccc1
Enquiry: I'm curious, which of these has a smaller MIC99 number: I or II ? Could you answer with the label of the item you picked?
Return: I
(I: 250 µg/mL, II: 500 µg/mL)

[A] O=C(Nn1c(S)nnc1-c1cccc2ccccc12)c1ccc([N+](=O)[O-])cc1
[B] O=C(Nn1c(S)nnc1-c1cccc2ccccc12)c1cccc([N+](=O)[O-])c1
Enquiry: I'm curious, which of these has a smaller MIC99 number: A or B ? Could you answer with the label of the item you picked?
Return: B

[a] O=C(Nn1c(S)nnc1-c1cccc2ccccc12)c1ccc2cccc([N+](=O)[O-])c2c1
[b] O=C(Nn1c(S)nnc1-c1cccc2ccccc12)c1ccccc1Cl
Enquiry: I'd appreciate it if you could identify which of a and b has the greater MIC99. Could you answer with the label of the item you picked?
Return: b

[1] O=C(Nn1c(S)nnc1-c1cccc2ccccc12)c1cccc(Cl)c1
[2] O=C(Nn1c(S)nnc1-c1cccc2ccccc12)c1ccc(O)cc1
Enquiry: I'm curious, which of these has a smaller MIC99 number: 1 or 2 ? Could you answer with the label of the item you picked?
Return: 2

---

System: Aspergillus niger
Assay: Antifungal activity against Aspergillus niger MTCC 282 after 72 hr
Assay type: functional
Details: MTCC 282, 72 h
OBSERVATION TYPE: MIC99 (µg/mL)

Example entries begin here.
SMILES RECORD | MIC99 (µg/mL)
O=C(Nn1c(S)nnc1-c1cccc2ccccc12)c1ccc(O)cc1 | 500
O=C(COc1ccc2ccccc2c1)Nn1c(S)nnc1-c1cccc2ccccc12 | 500

[a] O=C(Nn1c(S)nnc1-c1cccc2ccccc12)c1ccccc1O
[b] O=C(Nn1c(S)nnc1-c1cccc2ccccc12)c1ccc([N+](=O)[O-])cc1
[c] O=C(Nn1c(S)nnc1-c1cccc2ccccc12)c1ccc2cccc([N+](=O)[O-])c2c1
Enquiry: Put the entries in order of MIC99, starting with the largest number. Answer by listing the labels in the requested order.
Return: a, c, b
